test system: mussel; assay: Mussel plaque adhesion to coated plates (Instron tensile pull of individual plaques); format: in vivo; settings: 2.5% additive in primer; Table 4B
Reported Adhesive Failure is given for each of the following compounds.
RESULT TYPE: Adhesive Failure (kPa)

- COMPOUND: "Cc1cc(C(C)(C)C)c(C)c(C(C)(C)C)c1 [DBT, reference compound]"
  ENDPOINT RESULT: 49.3
- COMPOUND: "COc1ccccc1"
  ENDPOINT RESULT: 42.0
- COMPOUND: "CCOc1ccc2c(c1)C(C)=CC(C)(C)N2"
  ENDPOINT RESULT: 33.6
- COMPOUND: "Cc1cc(C(C)(C)C)c(O)c(C(C)(C)C)c1 [BHT, butylated hydroxytoluene]"
  ENDPOINT RESULT: 41.5
- COMPOUND: "CC(C)(C)c1cccc(O)c1C(C)(C)C"
  ENDPOINT RESULT: 56.9

====

tested on: mussel; test: Mussel plaque adhesion to coated plates (Instron tensile pull of individual plaques); assay type: in vivo; details: 25% additive in primer; Table 4A
Recorded % Adhesive Failure for the following compounds

- COMPOUND: "Cc1cc(C(C)(C)C)c(C)c(C(C)(C)C)c1 [DBT, reference compound]"
  % Adhesive Failure: "31.6%"
- COMPOUND: "Cc1cc(C(C)(C)C)c(O)c(C(C)(C)C)c1 [BHT, butylated hydroxytoluene]"
  % Adhesive Failure: "44.7%"
- COMPOUND: "COc1ccccc1"
  % Adhesive Failure: "54%"
- COMPOUND: "CC(C)(C)c1cccc(O)c1C(C)(C)C"
  % Adhesive Failure: "70.7%"
- COMPOUND: "CCOc1ccc2c(c1)C(C)=CC(C)(C)N2"
  % Adhesive Failure: "76.4%"
